Assay: yeast display, Sf9 membrane polyspecificity reagent, FACS + sequencing; frameworks hold sequencing errors
Parameter: polyreactivity (PSR sort gate)

QVQLVESGGGLVQAGGSLRLSCAASGLIFDGNAMGWYRPAPGKERELVADITGSSVRTYYADSVKGRFTISRDNAKNTVSLQMNSLIPEDTAVYYCAATYGYLYTGLSRYDYWGQGTQVTVSS: low polyreactivity
QVQLVESGGGLVQAGGSLRLSCAASGRTFYYNAMGWYRQAPGKERELVAAISWSGGSTYYADSVKGRFTISRDNAKNTVYLQMNSLKPEDTAVYYCAAGAYSYRKYRSYDYWGQGTQVTVSS: high polyreactivity
QVQLVESGGGLVQAGGSLRLICAASGSIFRLYAMGWYRQAPGKERELVAAIRWSGGRTYYADSVKGRFTISRDNAKNTVYLQMNSLKPEDTAVYYCAADYYLPAYPPQTFGYWGQGTQVTVSS: high polyreactivity
QVQLVETGGGLVQAGGSLRLSCAASGTIFTNYTMGWYRQAPGKERELVASISWSGGRTYYADSVKGRFTISRDNAKNTVYLQMNSLKPEDTAVYYCAAVSRAPGLRYDYWGQGTQVTVSS: high polyreactivity
QVQLVESVGGLVQAGGSLRLSCAAYGYTFYSNAMGWYRQAPGKDRELVASIRSRGRSTYYADSVKGRFTISRDNAKNTVYLQMNSLKPEDTAVYYCAPLPNNPAVYAYDYWGEGTQVTVSS: low polyreactivity
QVQLVESGGGLVQAGGSLRLSCAASGRTFVYYAMGWYRQAPGKERELVARISSGGSTYYADSVKGRFTISRDNAKNTVYLQMYSLKPEDTAVYYCAADAWYVWEYWWQPEDDYWGQGSQVTVSS: high polyreactivity
QVQHVESGGGLVQARGSLRLSCAASGSIFFNTMGWYSQAPGKERELVAAITWSGGRTYYADSVKGRFTISRDNAKNTVYLQMNSLKPEDTAVYYCAKDQGSWRYDYWGLGTQVTVSS: low polyreactivity
QVQLVESGGGLVQAGGSLRLSCAASGRTFVYYAMGWYRQAPGKERELVAAISSRGGSTYYADTVKGRFTISRDYAKNSVYLQMYSLKPEDTAVYYCAAVIGPERPTSPFDFWGQGTQVTVSS: high polyreactivity
QVQLVESGGGLVQAGGSLRLSCAASGRTFTINAMGWYRQAPGKERELVATIRVSGGSTYYADSVKGRFTISRDNAKNTVYLQMNSLKPEDTAVYYCAKGGTYFYAPAYDYWGQGTQVTVSS: low polyreactivity
QVQLEESGGVLVQAGGSLRLSCAASGRIFVWYAMGWYRQAPGKERELVAAISSADSTNYADSVKGRFTISRDNAKNTVYLQMNSLKPEDTAVYYCNAEGWPGNVVYGYYYWGQGTQVTVSS: low polyreactivity

Alright, here's another sequence for you.
Kindly indicate its recorded polyreactivity (PSR sort gate). Item: `QVQLVESVGGLVQAGGSLRLSCAASGSTFYFNAMGWYRQAPGKERELVAAIDWSGGSTYYADSVKGRFTISRDNAKNTVYLQMNSLKPEDTAVYYCAAPYHYYGNTVGYADYDYWGQGTQVTVSS`
low polyreactivity

====

Test: yeast display, Sf9 membrane polyspecificity reagent, FACS + sequencing; frameworks hold sequencing errors
Parameter: polyreactivity (PSR sort gate)

QVQLVESGGGLVQAGGSLRLSCAASGIIFDTYTMGWTRHSPGKERELVAAITRRGSRTYYADSVKGRFTISRDNAKNTVYLQMNSLKREDTAVYYCNAVPRWSYVDEDSWGQGTQVTVSS: high polyreactivity
QVQLVESGGGLVQAGGSLRLSCAASGIIFGVNAMGWYRQAPGKERELVASITSGGSTNYADSVKGRFTISRDNAKNTVYLQMNSLKPEDTAVYYCNARWWAPGRPGDEINRILDYWGQGTQVTVSS: low polyreactivity
QVQLVESGGGLVQAGGSLRLSCAASGSTFRAYAMGWYRQAPGKEREFVADISWSGGSTYYADSVKGRFTISRDNAKNTVYLQMNSLKPEDSAVYYCAAEAAPLIIVTYDYWGQGTQVTVSS: low polyreactivity
QVQLVESCGGLVQAGGSLRLSCAASGLTFIFNAMGWYRQAPGKEREFVADISSGVNTNYADSVKGRFTISRDNAKNTVYLQMNSLKPEDTAVYYCNKDVNAYGGASIRGYTMYYWGQGTQVTVSS: low polyreactivity
QVQLVESGGGLVQAGGSLRLSCAASGSTIYAMGWYRQAPGKERELVAGINRSGTRTYYADSVKGRFTISRDNAKNTVYLQMNSLKPEDTAVYYCAALVYRPTYGYIFDYWGQGTQVTVSS: high polyreactivity
QVQQQESGGGLVQAGGSQRLSCAASGTSLNSLCMGWYRQAPGKRREFVASITWGTTTNYAESVKGRFTISRDNANNTVYPQMNSLKPEDTAVYYCAAPPFGDSSYHYWGQGTQVTVSS: low polyreactivity
QVQLVESGGGLVQAGGSLRLSCAASGFTFHWNAMGWYRPAPGKERELVAVITSGGSTNYADSVKGRFTISRDNAKNTVYLQMNSLKPEDTAVYYCAKEDGYSQLKTTFDEPGYGSWGQGTQVTVSS: low polyreactivity
QVQLVESGGGLVQAGGSLRLSCAASGFTLYYYAMGWYRQAPGKERELVAAIRSGGRTYYADSVKGRFTISRDNAKNTVYLQMNSLKPEDTAVYYCAARYRVYRGSRGITDYGYWGQGTQVTVSS: high polyreactivity
QVQLVESGGGLVQAGGSLRLSCAASGRTFDGNAMGWYRQAPGKERELVAAISKRGGTTYYADSVKGRFTISRDNAKNTVYLQMNSLKPEDTAVYYCAAPYNTYSYSEGEYWGQGTQVTVSS: low polyreactivity
QDQLVESGGGLVQAGGSLRLSFAASGRTFDRNTMGWYRQAPGKERELVAAISSSGGSTYYADSVKGRFTISRDNAKNTVYLEMNSLIPEDTAVYYCAVLSRQYFRYGYDYCGQGTQVTVSS: high polyreactivity

Tell me polyreactivity (PSR sort gate) reported for `QDQLVESGGGIVQAGGSLRLSCAASGFIFSTNAMGWYRQAPGKERELVAAITGRGTNTYYADSVKGRFTISRDNAKNTVYLQMNSLKPEDTAVYYCAADNKDSEDDYWGQGTQVTVSS`
high polyreactivity

Please report the measured polyreactivity (PSR sort gate) for `QVQLVESGGGLVQAGGILRLSSAASGSTFFNYAMGWYRQAPGKERELVAAISSSGGRTYYADSVKGRFTISRDNAKNTVYLQMNSLKPEDTSVYYCAASGRKHGMNYWGQGTQVTVSS`
high polyreactivity

Supply recorded polyreactivity (PSR sort gate) for `QVQLEESGGGLVQAGGSLRLSCAATGLIFRTYAMGWYRQAPGKERELVAAISYSGGSTFYADSVNGRFTISRDNAKNTVYLQMNRLKPEDTAVYYCAADSRAKRYYWGQGTQVTVSS` here.
high polyreactivity

Tell me its polyreactivity (PSR sort gate) given `QVQLVESGGGLVQAGGSLRLSCAASGFTFGAYAMGWYRQAPGKERELVASISWSGGSTYYADSVKGRFTISRDNAKNTVYLQLNSLKPEDTAVYYCNKDFVYPDDDGLFDYWGQGTQVTVSS` as the entry.
low polyreactivity

Tell me polyreactivity (PSR sort gate) reported for `HVQLVESGGGIVQAGGSLRLSCAASGLIFSYYAMGWYRQAPGKERELVAAINSGGSTYYADSVKGRFTISRDNAKNTVYLQMNSLKPEDSAVYYCAAHLWYHGHLFDYWGQGTQVTVSS`
high polyreactivity

Item `QVQLVESGGGLVQAGGSLRLSCAASGSILAGNVMGWYRQAPGKERELVAAITGSGGITYYADSVKGRFTISRDNAKNTVYLQMNSLKPEDTAVYYCNAVPDTRSGELDYWGQGTQVTVSS` : provide polyreactivity (PSR sort gate)
low polyreactivity

Indicate its recorded polyreactivity (PSR sort gate); the sequence in question is `QVQREESGGGLVQAGGSLRLSCAASGSIFVGNAMGWYRQAPGKESELVAAITASGTSTYYADSVKGRFTISRDNAKNTVYLQMNSLKPEDTAVYYCNAVQLVYDQYRYDYWGQGTQVTVSS`
high polyreactivity

Report measured polyreactivity (PSR sort gate); entry is `QVQLVESGGGLVQAGGSLRLSCAASGRIFGDYGMGWYRQAPGKDRELVAAITDRGGTTYYADSVKGRFTISRDNAKNTVYVQKNSLQPEDTAVYYCNADTVVVWYSPSREYDYWGQGTQVTVSS`
low polyreactivity

====

Test: yeast display, Sf9 membrane polyspecificity reagent, FACS + sequencing; frameworks hold sequencing errors
Parameter: polyreactivity (PSR sort gate)

See these solved cases before continuing.
QVQLVESGGGLVQAGGSLRLSCAASGSTFGTYAMGWYRQAPGKERELVAAISSGGSTYYADSVKGRFTISRDNAKNTVYLQMNSLKPEDTAVYYCAAGYYWYVWGFGYWGQGTQVSVSS: low polyreactivity
QVQLVESGGGLVQAGGSLRLSCDASGITYHNYAMGWYRQAPGKEREYVAAITRNTASSYYADSVKGRFSISRDKAKNTVYFQMNSLKPEDTAVYYCAATDKKHRTAYDSWGQGTQVTVSS: low polyreactivity
QDQLVESGGGLVQAGGSLRLSCASSGSIFSYNAMGWYRQAPGKEMELVAAISRGGSTYYADSVKGRFTISRDNAKNTVYLQMNSLKPDDTAVYYCAAYVYQLSYPAFEEGYWGQGTQVTVSS: low polyreactivity
QVQLVESGGGLVQAGGSLRLSCAASGRTFGFYGMGWYRQAPGKEREFVAAITRRGGSTYYADSVKGRFTISRDNAKNTVYLQMNRLKPEDTAVYYCAAGYSSRYRGGLDYWGQGTQVTVSS: high polyreactivity
QVQLVESGGGLVQAGGSLRLSCAASGSTIGPYAMGWYRQAPGKERELVAAITESGDSTYYADSVKGRFTISRDTAKNTVYLQMNSLKPEDTAVYYCAADVYGDKMDYWGQGTQVTVSS: low polyreactivity

Tell us which polyreactivity (PSR sort gate) value is on record for `QVQLVESGGGIVQAGGSLRLSCAASGNIFPYYDMGWYRPAPGKERELVAAITSSASGTYYADSVKGRFTISRDNAKNTVYLQMNSLKPEDTAVYYCAAGVFFFTFDYWGQGTQVTVSS`
low polyreactivity

Answer with reported polyreactivity (PSR sort gate) of `QVHLVESGGGLVQAGGSLRLSCAASGSIFYKYVMGWYRQAPGKERELVAAISRGGGSTYYADSVKGRFTISRDNAKNTVYLQMNSLKPEDTAVYYCNAVGRPRYGHGFDHWGQGTQVTVSS`
high polyreactivity

Tell me polyreactivity (PSR sort gate) reported for `QVQLVESGGGLVQAGGSLRLSCAASGRIFHKYDMGWYRQAPGKERELVAAITTSGGSTYYADSVKGRFTISRDNAKNTVYLQMNSLKPEDTAVYYCADSWSRRERGFDYWGQGTQVTVSS`
high polyreactivity
